Sourced from patent US8178506B2

Catalogue of substances with associated AP2 mRNA
tested on: aP2; assay: aP2 mRNA expression in adipocytes (real-time PCR); type: cell-based, human; conditions: Table 17; differentiating adipocytes; control = treatment with ISIS 342673
In the oligonucleotide strings, read from the 5' end, every base follows the letter of its sugar. An asterisk marks phosphorothioate; unmarked linkages are phosphodiester. Other units and linkages are bracketed, terminal groups are in braces. A string of capitals states the bases alone. e = 2'-O-(2-methoxyethyl) (MOE); [5mC] = 5-methylcytosine
READOUT LABEL: AP2 mRNA

1) 328132 (antisense eG*eT*eG*eA*eG*eA*eG*eT*eA*eG*e[5mC]*eA*eT*eG*eT*eT*eT*eG*eT*e[5mC]*eT) [compound 328132]: 90.2 percentage of control
2) 342673 (antisense eA*eG*eA*e[5mC]*eT*eA*eG*e[5mC]*eG*eG*eT*eA*eT*e[5mC]*eT*eT*eT*eA*eT*e[5mC]*e[5mC]*e[5mC]) [compound 342673]: 100.0 percentage of control
3) 328135 (eA*e[5mC]*e[5mC]*eG*eA*eA*e[5mC]*eA*eA*eA*eG*eT*e[5mC]*eT*eG*eA*e[5mC]*eA*eG*eG*eA; anti-miR) [compound 328135]: 80.6 percentage of control
4) 328130 (antisense eA*e[5mC]*e[5mC]*eT*e[5mC]*eA*eG*eG*eT*eG*eG*eT*eT*eG*eA*eA*eG*eG*eA*eG*eA) [compound 328130]: 86.6 percentage of control
5) 328131 (antisense eA*eT*eA*eT*eG*eT*e[5mC]*eA*eT*eA*eT*e[5mC]*eA*eA*eA*e[5mC]*eT*e[5mC]*e[5mC]*eT*eA) [compound 328131]: 95.4 percentage of control
6) 328118 (antisense eT*eA*eT*eT*eA*eT*e[5mC]*eA*eG*e[5mC]*eA*eT*e[5mC]*eT*eG*e[5mC]*eT*eT*eG*e[5mC]*eA) [compound 328118]: 92.7 percentage of control
7) 328119 (antisense eA*eA*eT*eA*eA*e[5mC]*eA*e[5mC]*eA*e[5mC]*eA*eT*e[5mC]*e[5mC]*eA*e[5mC]*eT*eT*eT*eA*eA) [compound 328119]: 99.9 percentage of control
8) 328121 (antisense eA*eT*eG*eA*e[5mC]*eT*eA*e[5mC]*eA*eA*eG*eT*eT*eT*eA*eT*eG*eG*e[5mC]*e[5mC]*eA) [compound 328121]: 127.0 percentage of control
9) 328116 (antisense e[5mC]*eA*eA*eA*eA*eT*eT*eG*e[5mC]*eA*eA*eG*e[5mC]*eA*eA*eA*eT*eT*eG*e[5mC]*eA) [compound 328116]: 87.7 percentage of control
10) 328124 (antisense eA*eG*e[5mC]*eA*eG*eG*eT*eG*eA*eA*eG*eG*e[5mC]*eA*e[5mC]*e[5mC]*eT*eG*eG*e[5mC]*eT) [compound 328124]: 101.8 percentage of control
